fraction ligated: recorded values
B1: minF1; the commonest letter at each place (parent)
chain: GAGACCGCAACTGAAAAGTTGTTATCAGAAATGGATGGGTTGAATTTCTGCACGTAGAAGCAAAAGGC

- Variants of: B1
- MEASUREMENT DESCRIPTION: fraction ligated after 30 min (ligated reads / total reads); higher = more ligase activity
- REPORTED CONDITIONS: with F1*subA RNA substrate (template-directed ligation), 42 °C
MEASURED QUANTITY: fraction ligated

[[record]]
variant_string = "G28A G37A"
measured_quantity = "fraction ligated"
observed = 0.00676

[[record]]
variant_string = "T32C G37T"
measured_quantity = "fraction ligated"
observed = 0.00216

[[record]]
variant_string = "A27C G28T"
measured_quantity = "fraction ligated"
observed = 0.628

[[record]]
variant_string = "A27G A31T"
measured_quantity = "fraction ligated"
observed = 0.816

[[record]]
variant_string = "C26T A27C"
measured_quantity = "fraction ligated"
observed = 0.79

[[record]]
variant_string = "T25C T36A"
measured_quantity = "fraction ligated"
observed = 0.0394

[[record]]
variant_string = "C26A G34C"
measured_quantity = "fraction ligated"
observed = 0.00194

[[record]]
variant_string = "A24G T32G"
measured_quantity = "fraction ligated"
observed = 0.00185

[[record]]
variant_string = "A24C A43G"
measured_quantity = "fraction ligated"
observed = 0.00364

[[record]]
variant_string = "A24C A27G"
measured_quantity = "fraction ligated"
observed = 0.0468

[[record]]
variant_string = "T36A G42T"
measured_quantity = "fraction ligated"
observed = 0.00416

[[record]]
variant_string = "A29G G33C"
measured_quantity = "fraction ligated"
observed = 0.709

[[record]]
variant_string = "C26A G37T"
measured_quantity = "fraction ligated"
observed = 0.00569

[[record]]
variant_string = "A30T A43C"
measured_quantity = "fraction ligated"
observed = 0.0532

[[record]]
variant_string = "T32C A43G"
measured_quantity = "fraction ligated"
observed = 0.0128

[[record]]
variant_string = "A24T G28T"
measured_quantity = "fraction ligated"
observed = 0.0703

[[record]]
variant_string = "A31G A35C"
measured_quantity = "fraction ligated"
observed = 0.022

[[record]]
variant_string = "G28T A35T"
measured_quantity = "fraction ligated"
observed = 0.051

[[record]]
variant_string = "G28C A29T A30T A31T"
measured_quantity = "fraction ligated"
observed = 0.752

[[record]]
variant_string = "G42T A43T"
measured_quantity = "fraction ligated"
observed = 0.00326

[[record]]
variant_string = "G33A G37T"
measured_quantity = "fraction ligated"
observed = 0.0175

[[record]]
variant_string = "A27T G34C"
measured_quantity = "fraction ligated"
observed = 0.00507

[[record]]
variant_string = "G33C G34A"
measured_quantity = "fraction ligated"
observed = 0.18

[[record]]
variant_string = "A24G A31G"
measured_quantity = "fraction ligated"
observed = 0.0578

[[record]]
variant_string = "A30C G37A"
measured_quantity = "fraction ligated"
observed = 0.009

[[record]]
variant_string = "A35T G37T"
measured_quantity = "fraction ligated"
observed = 0.00238

[[record]]
variant_string = "T32A G37A"
measured_quantity = "fraction ligated"
observed = 0.000603

[[record]]
variant_string = "G33T G42T"
measured_quantity = "fraction ligated"
observed = 0.0256

[[record]]
variant_string = "G28T A35C"
measured_quantity = "fraction ligated"
observed = 0.0723

[[record]]
variant_string = "A24G T25A"
measured_quantity = "fraction ligated"
observed = 0.00617

[[record]]
variant_string = "G28A A29T"
measured_quantity = "fraction ligated"
observed = 0.822

[[record]]
variant_string = "A31T G33T"
measured_quantity = "fraction ligated"
observed = 0.467

[[record]]
variant_string = "T32A A35T"
measured_quantity = "fraction ligated"
observed = 0.00186

[[record]]
variant_string = "G42C A43G"
measured_quantity = "fraction ligated"
observed = 0.0762

[[record]]
variant_string = "G28T A31G"
measured_quantity = "fraction ligated"
observed = 0.82

[[record]]
variant_string = "G37C"
measured_quantity = "fraction ligated"
observed = 0.00417

[[record]]
variant_string = "A29G G34A"
measured_quantity = "fraction ligated"
observed = 0.0509

[[record]]
variant_string = "unchanged"
measured_quantity = "fraction ligated"
observed = 0.761

[[record]]
variant_string = "T23G A35C"
measured_quantity = "fraction ligated"
observed = 0.0185

[[record]]
variant_string = "A31T T36A"
measured_quantity = "fraction ligated"
observed = 0.0236

[[record]]
variant_string = "T23C A43T"
measured_quantity = "fraction ligated"
observed = 0.00662

[[record]]
variant_string = "A29G G42T"
measured_quantity = "fraction ligated"
observed = 0.096

[[record]]
variant_string = "A29T T32C"
measured_quantity = "fraction ligated"
observed = 0.0232

[[record]]
variant_string = "A29G A31G"
measured_quantity = "fraction ligated"
observed = 0.795

[[record]]
variant_string = "G28A"
measured_quantity = "fraction ligated"
observed = 0.809

[[record]]
variant_string = "T23C G33A"
measured_quantity = "fraction ligated"
observed = 0.304

[[record]]
variant_string = "C26T G34T"
measured_quantity = "fraction ligated"
observed = 0.0063

[[record]]
variant_string = "A31T A35T"
measured_quantity = "fraction ligated"
observed = 0.0356

[[record]]
variant_string = "A43T"
measured_quantity = "fraction ligated"
observed = 0.13

[[record]]
variant_string = "T25C A29T"
measured_quantity = "fraction ligated"
observed = 0.0467

[[record]]
variant_string = "T23G G28C"
measured_quantity = "fraction ligated"
observed = 0.8

[[record]]
variant_string = "C26A G33C"
measured_quantity = "fraction ligated"
observed = 0.0427

[[record]]
variant_string = "G34T A35T"
measured_quantity = "fraction ligated"
observed = 0.00561

[[record]]
variant_string = "T23G T36A"
measured_quantity = "fraction ligated"
observed = 0.0286

[[record]]
variant_string = "T36A A44T"
measured_quantity = "fraction ligated"
observed = 0.012

[[record]]
variant_string = "T36G"
measured_quantity = "fraction ligated"
observed = 0.0461

[[record]]
variant_string = "G33C A44T"
measured_quantity = "fraction ligated"
observed = 0.598

[[record]]
variant_string = "T23G A43G"
measured_quantity = "fraction ligated"
observed = 0.0673

[[record]]
variant_string = "A24G T32C"
measured_quantity = "fraction ligated"
observed = 0.00122

[[record]]
variant_string = "G28A A31T"
measured_quantity = "fraction ligated"
observed = 0.821

[[record]]
variant_string = "A24T A30T"
measured_quantity = "fraction ligated"
observed = 0.00805

[[record]]
variant_string = "A30G A43C"
measured_quantity = "fraction ligated"
observed = 0.179

[[record]]
variant_string = "T25A G28A"
measured_quantity = "fraction ligated"
observed = 0.011

[[record]]
variant_string = "G33A A43C"
measured_quantity = "fraction ligated"
observed = 0.0816

[[record]]
variant_string = "A27G G28A"
measured_quantity = "fraction ligated"
observed = 0.797

[[record]]
variant_string = "G34C A35C"
measured_quantity = "fraction ligated"
observed = 0.00352

[[record]]
variant_string = "C26A G37C"
measured_quantity = "fraction ligated"
observed = 0.00572

[[record]]
variant_string = "G34C G37A"
measured_quantity = "fraction ligated"
observed = 0.00257

[[record]]
variant_string = "G42T A43G"
measured_quantity = "fraction ligated"
observed = 0.115

[[record]]
variant_string = "G28T A44C"
measured_quantity = "fraction ligated"
observed = 0.685

[[record]]
variant_string = "C26A T32C"
measured_quantity = "fraction ligated"
observed = 0.0036

[[record]]
variant_string = "T25C T36C"
measured_quantity = "fraction ligated"
observed = 0.00974

[[record]]
variant_string = "G42A A44C"
measured_quantity = "fraction ligated"
observed = 0.024

[[record]]
variant_string = "G28T T32G"
measured_quantity = "fraction ligated"
observed = 0.0263

[[record]]
variant_string = "G33T A43C"
measured_quantity = "fraction ligated"
observed = 0.0254

[[record]]
variant_string = "A24G G42A"
measured_quantity = "fraction ligated"
observed = 0.00347

[[record]]
variant_string = "C26T A43T"
measured_quantity = "fraction ligated"
observed = 0.0127

[[record]]
variant_string = "G28T T32C"
measured_quantity = "fraction ligated"
observed = 0.0326

[[record]]
variant_string = "T32C A44T"
measured_quantity = "fraction ligated"
observed = 0.0253

[[record]]
variant_string = "A24C A44C"
measured_quantity = "fraction ligated"
observed = 0.00359

[[record]]
variant_string = "A29G G33A"
measured_quantity = "fraction ligated"
observed = 0.8

[[record]]
variant_string = "T23C T32A"
measured_quantity = "fraction ligated"
observed = 0.00196

[[record]]
variant_string = "T36C G37A"
measured_quantity = "fraction ligated"
observed = 0.00566

[[record]]
variant_string = "A29G A31C"
measured_quantity = "fraction ligated"
observed = 0.803

[[record]]
variant_string = "A24C C26A"
measured_quantity = "fraction ligated"
observed = 0.0482

[[record]]
variant_string = "T32C G42C"
measured_quantity = "fraction ligated"
observed = 0.00351

[[record]]
variant_string = "T23G A44T"
measured_quantity = "fraction ligated"
observed = 0.792

[[record]]
variant_string = "A31T A44C"
measured_quantity = "fraction ligated"
observed = 0.745

[[record]]
variant_string = "T25A G28T"
measured_quantity = "fraction ligated"
observed = 0.0157

[[record]]
variant_string = "A30G T36G"
measured_quantity = "fraction ligated"
observed = 0.0634

[[record]]
variant_string = "A24C A43C"
measured_quantity = "fraction ligated"
observed = 0.0036

